Target: IRAK1 (Homo sapiens, UniProt P51617)
Construct: purchased Life Technologies Corporation
Sequence (P51617 whole entry): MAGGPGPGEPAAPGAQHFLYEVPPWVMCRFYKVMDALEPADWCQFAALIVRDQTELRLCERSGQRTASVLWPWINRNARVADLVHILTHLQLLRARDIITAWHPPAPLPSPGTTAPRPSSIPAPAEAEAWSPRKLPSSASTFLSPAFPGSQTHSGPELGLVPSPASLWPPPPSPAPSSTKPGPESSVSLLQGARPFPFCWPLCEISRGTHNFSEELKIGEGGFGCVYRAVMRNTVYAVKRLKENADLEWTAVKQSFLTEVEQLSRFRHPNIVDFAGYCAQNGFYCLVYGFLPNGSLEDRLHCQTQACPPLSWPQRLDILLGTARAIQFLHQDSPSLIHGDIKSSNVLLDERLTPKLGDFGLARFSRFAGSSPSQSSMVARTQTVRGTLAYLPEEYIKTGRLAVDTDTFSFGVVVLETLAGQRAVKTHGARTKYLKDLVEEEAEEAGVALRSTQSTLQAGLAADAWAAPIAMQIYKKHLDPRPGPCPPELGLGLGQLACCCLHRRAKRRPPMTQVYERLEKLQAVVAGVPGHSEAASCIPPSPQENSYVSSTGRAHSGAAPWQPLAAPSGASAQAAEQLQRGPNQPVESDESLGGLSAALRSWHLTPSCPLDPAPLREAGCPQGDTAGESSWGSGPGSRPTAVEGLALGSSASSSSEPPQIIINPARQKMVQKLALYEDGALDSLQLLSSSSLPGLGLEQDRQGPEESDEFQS
Assay: Kinase selectivity, Adapta platform
Format: biochemical
Settings: 1 micromolar compound, read-out: percent inhibition IRAK1
recorded.metric: inhibition at 1 µM (%)

(A) C[C@H]1CN(c2cc(-c3n[nH]c4ccc(OC5(C)CC5)cc34)ccn2)CCO1
(B) C[C@@H]1CN(c2cc(-c3n[nH]c4ccc(OC5(C)CC5)cc34)ccn2)CCO1
(C) C[C@@H]1CN(c2cc(-c3n[nH]c4ccc(OC5(C)CC5)cc34)ccn2)C[C@H](C)O1
(D) CC1(Oc2ccc3[nH]nc(-c4ccnc(N5CCOCC5)c4)c3c2)CC1
Hello, I need these entries ordered by inhibition at 1 µM, highest reading first. Thanks! Order the labels as requested and give them as your answer.
D, B, A, C
(D: 18%, B: 8%, A: -5%, C: -17%)

----------
Target: AURKB (Aurora B) (Homo sapiens, UniProt Q96GD4)
Construct: purchased Life Technologies Corporation
Sequence (Q96GD4 whole entry): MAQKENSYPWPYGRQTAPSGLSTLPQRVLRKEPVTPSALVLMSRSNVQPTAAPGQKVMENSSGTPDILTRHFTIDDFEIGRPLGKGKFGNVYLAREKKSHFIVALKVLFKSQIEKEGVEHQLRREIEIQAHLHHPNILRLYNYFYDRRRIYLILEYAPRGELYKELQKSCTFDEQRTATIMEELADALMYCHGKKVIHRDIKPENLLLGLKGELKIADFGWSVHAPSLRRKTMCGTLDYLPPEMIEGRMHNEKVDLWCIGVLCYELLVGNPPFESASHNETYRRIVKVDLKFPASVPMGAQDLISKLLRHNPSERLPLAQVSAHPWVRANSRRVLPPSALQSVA
Experiment: Kinase selectivity, Z'-LYTE platform
Format: biochemical
Conditions: 1 micromolar compound, read-out: percent inhibition AURKB (Aurora B)
recorded.metric: inhibition at 1 µM (%)

See these solved cases before continuing.
Look up AURKB (Aurora B) (Homo sapiens, UniProt Q96GD4) data: inhibition at 1 µM of "C[C@H]1CN(c2cc(-c3n[nH]c4ccc(OC5(C)CC5)cc34)ccn2)CCO1" , then report it.
11

Look up AURKB (Aurora B) (Homo sapiens, UniProt Q96GD4) data: inhibition at 1 µM of "C[C@@H]1CN(c2cc(-c3n[nH]c4ccc(OC5(C)CC5)cc34)ccn2)CCO1" , then report it.
11

(I) C[C@@H]1CN(c2cc(-c3n[nH]c4ccc(OC5(C)CC5)cc34)ccn2)C[C@H](C)O1
(II) CC1(Oc2ccc3[nH]nc(-c4ccnc(N5CCOCC5)c4)c3c2)CC1
Given the listed items, does I or II have the lesser reported inhibition at 1 µM? Output the label that corresponds to your choice.
I

----------
Target: LRRK2 (G2019S mutation, GST-LRRK2 (amino acids 970-2527)) (Homo sapiens, UniProt Q5S007, G2019S)
Construct: GST-LRRK2 (amino acids 970-2527); GST (N); purchased Life Technologies Corporation
Sequence (Q5S007 970-2527 G2019S): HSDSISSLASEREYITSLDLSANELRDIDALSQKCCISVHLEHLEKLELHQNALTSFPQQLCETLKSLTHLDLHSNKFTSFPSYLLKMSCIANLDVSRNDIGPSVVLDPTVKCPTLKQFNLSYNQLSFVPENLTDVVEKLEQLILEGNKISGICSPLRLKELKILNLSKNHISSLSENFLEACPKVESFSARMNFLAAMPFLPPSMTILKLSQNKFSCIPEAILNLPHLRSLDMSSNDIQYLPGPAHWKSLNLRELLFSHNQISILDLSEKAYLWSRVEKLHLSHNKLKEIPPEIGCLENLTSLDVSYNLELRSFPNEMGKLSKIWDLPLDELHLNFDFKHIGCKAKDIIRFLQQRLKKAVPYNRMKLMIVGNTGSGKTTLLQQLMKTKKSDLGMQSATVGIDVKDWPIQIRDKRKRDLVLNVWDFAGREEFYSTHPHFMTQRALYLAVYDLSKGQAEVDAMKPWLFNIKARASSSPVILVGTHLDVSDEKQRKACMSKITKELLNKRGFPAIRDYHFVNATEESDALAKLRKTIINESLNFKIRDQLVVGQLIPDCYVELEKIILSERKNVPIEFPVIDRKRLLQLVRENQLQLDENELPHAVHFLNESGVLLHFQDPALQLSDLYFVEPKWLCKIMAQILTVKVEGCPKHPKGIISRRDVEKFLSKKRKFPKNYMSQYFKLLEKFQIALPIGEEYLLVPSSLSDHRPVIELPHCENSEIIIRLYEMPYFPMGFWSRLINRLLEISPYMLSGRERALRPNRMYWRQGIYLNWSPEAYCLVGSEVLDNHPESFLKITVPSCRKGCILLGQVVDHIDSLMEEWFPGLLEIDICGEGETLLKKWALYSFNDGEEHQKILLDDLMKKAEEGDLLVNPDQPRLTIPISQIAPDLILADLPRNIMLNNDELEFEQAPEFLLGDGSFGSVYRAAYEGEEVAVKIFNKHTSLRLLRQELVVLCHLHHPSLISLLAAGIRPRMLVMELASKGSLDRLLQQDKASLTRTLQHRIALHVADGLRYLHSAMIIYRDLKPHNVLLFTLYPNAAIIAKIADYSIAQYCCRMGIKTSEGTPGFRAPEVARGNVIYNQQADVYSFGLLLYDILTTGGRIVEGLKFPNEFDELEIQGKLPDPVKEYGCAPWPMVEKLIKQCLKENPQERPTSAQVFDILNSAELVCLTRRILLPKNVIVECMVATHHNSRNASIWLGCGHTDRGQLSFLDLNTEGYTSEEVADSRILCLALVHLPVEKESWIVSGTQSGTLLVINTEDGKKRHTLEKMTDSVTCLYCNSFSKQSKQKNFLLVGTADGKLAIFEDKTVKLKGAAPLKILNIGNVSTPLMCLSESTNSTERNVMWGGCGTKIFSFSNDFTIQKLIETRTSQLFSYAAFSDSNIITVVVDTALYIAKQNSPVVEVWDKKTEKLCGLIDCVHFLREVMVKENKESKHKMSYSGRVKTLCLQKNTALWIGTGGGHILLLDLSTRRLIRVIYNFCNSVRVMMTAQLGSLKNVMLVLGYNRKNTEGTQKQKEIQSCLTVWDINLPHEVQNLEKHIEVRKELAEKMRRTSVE
Test: LRRK2 5 mM ATP LanthaScreen Assay
Type: biochemical
Settings: mean IC50
recorded.metric: IC50 (nM)

In one line, give reported IC50 of the entry "c1cc(-c2n[nH]c3ccc(OC4CC4)cc23)cc(N2CCN(C3CC3)CC2)n1" .
300

In one line, give reported IC50 of the entry "c1cc(-c2n[nH]c3ccc(OC4CC4)cc23)cc(N2CCC2)n1" .
225

In one line, give reported IC50 of the entry "CCc1nnc2n1CCN(c1cc(-c3n[nH]c4ccc(OC5CC5)cc34)ccn1)C2" .
297

----------
Target: DYRK1A (Homo sapiens)
Construct: purchased Life Technologies Corporation
Experiment: Kinase selectivity, Z'-LYTE platform
Format: biochemical
Details: 1 micromolar compound, read-out: percent inhibition DYRK1A
recorded.metric: inhibition at 1 µM (%)

In one line, give reported inhibition at 1 µM of the entry C[C@@H]1CN(c2cc(-c3n[nH]c4ccc(OC5(C)CC5)cc34)ccn2)CCO1 [Example 29] .
4

(A) CC1(Oc2ccc3[nH]nc(-c4ccnc(N5CCOCC5)c4)c3c2)CC1 [Example 27]
(B) C[C@@H]1CN(c2cc(-c3n[nH]c4ccc(OC5(C)CC5)cc34)ccn2)C[C@H](C)O1 [Example 30]
(C) C[C@H]1CN(c2cc(-c3n[nH]c4ccc(OC5(C)CC5)cc34)ccn2)CCO1 [Example 28]
Sort low-to-high on inhibition at 1 µM, please. Order the labels as requested and give them as your answer.
C, B, A
(C: 2%, B: 3%, A: 6%)

----------
Biological target: CDK1/cyclin B (Homo sapiens)
Construct: purchased Life Technologies Corporation
Sequence (P06493 whole entry): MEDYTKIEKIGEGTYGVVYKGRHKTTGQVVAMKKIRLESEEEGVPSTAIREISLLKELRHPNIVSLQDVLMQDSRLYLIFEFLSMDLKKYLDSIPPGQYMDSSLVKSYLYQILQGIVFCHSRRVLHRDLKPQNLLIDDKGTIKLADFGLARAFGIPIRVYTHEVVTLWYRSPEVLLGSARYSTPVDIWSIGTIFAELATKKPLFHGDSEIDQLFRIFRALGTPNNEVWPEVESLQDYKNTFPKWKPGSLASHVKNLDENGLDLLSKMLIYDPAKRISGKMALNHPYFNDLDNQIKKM
Sequence (P14635 whole entry partner): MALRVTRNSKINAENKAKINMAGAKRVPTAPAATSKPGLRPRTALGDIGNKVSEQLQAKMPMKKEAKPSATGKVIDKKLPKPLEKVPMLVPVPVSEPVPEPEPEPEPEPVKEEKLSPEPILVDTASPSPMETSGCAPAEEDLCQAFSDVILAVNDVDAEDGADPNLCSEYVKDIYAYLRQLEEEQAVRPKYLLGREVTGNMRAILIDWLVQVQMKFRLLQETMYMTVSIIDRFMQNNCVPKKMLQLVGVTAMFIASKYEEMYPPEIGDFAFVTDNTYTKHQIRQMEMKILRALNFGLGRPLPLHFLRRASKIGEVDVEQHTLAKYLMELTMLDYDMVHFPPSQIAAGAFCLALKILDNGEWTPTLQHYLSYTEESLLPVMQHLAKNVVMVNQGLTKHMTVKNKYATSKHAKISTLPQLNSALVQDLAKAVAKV
Assay: Kinase selectivity, Z'-LYTE platform
Format: biochemical
Conditions: 1 micromolar compound, read-out: percent inhibition CDK1/cyclin B
recorded.metric: inhibition at 1 µM (%)

In one line, give reported inhibition at 1 µM of the entry "CC1(Oc2ccc3[nH]nc(-c4ccnc(N5CCOCC5)c4)c3c2)CC1" .
33

In one line, give reported inhibition at 1 µM of the entry "C[C@H]1CN(c2cc(-c3n[nH]c4ccc(OC5(C)CC5)cc34)ccn2)CCO1" .
25

(1) C[C@@H]1CN(c2cc(-c3n[nH]c4ccc(OC5(C)CC5)cc34)ccn2)C[C@H](C)O1
(2) C[C@@H]1CN(c2cc(-c3n[nH]c4ccc(OC5(C)CC5)cc34)ccn2)CCO1
Given the listed items, does 1 or 2 have the lesser reported inhibition at 1 µM? Output the label that corresponds to your choice.
1
(1: 9%, 2: 26%)

----------
Target: LRRK2 (G2019S mutation, GST-LRRK2 (amino acids 970-2527)) (Homo sapiens, UniProt Q5S007, G2019S)
Construct: GST-LRRK2 (amino acids 970-2527); GST (N); purchased Life Technologies Corporation
Assay: LRRK2 Km ATP LanthaScreen Assay
Type: biochemical
Conditions: mean IC50
pIC50: −log10 of the molar value.
recorded.metric: pIC50

In one line, give reported pIC50 of the entry "CS(=O)(=O)N1CCCN(c2cc(-c3n[nH]c4ccc(OC5CC5)cc34)ccn2)CC1" .
7.29

(I) C[C@@H]1CN(c2cc(-c3n[nH]c4ccc(OC5(C)CC5)cc34)ccn2)C[C@H](C)O1
(II) CC1(Oc2ccc3[nH]nc(-c4ccnc(N5C6CCC5COC6)c4)c3c2)CC1
Which entry has a larger number for pIC50, I or II ? Output the label that corresponds to your choice.
I

----------
Target: CLK2 (Homo sapiens)
Construct: purchased Life Technologies Corporation
Sequence (P49760 whole entry): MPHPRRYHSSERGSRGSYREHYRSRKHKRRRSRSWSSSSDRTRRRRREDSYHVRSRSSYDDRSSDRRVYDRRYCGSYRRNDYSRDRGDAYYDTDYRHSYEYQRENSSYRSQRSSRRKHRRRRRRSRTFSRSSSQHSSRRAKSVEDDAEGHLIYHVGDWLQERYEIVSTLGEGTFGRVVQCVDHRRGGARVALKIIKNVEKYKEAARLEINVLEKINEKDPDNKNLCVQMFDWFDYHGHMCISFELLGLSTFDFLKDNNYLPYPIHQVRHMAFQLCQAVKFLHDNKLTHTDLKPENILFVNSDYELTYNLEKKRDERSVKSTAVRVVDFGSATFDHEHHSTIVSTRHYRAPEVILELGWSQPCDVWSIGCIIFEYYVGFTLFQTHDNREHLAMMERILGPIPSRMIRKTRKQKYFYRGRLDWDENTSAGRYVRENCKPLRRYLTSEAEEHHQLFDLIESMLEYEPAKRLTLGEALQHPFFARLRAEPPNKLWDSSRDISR
Assay: Kinase selectivity, Z'-LYTE platform
Format: biochemical
Conditions: 1 micromolar compound, read-out: percent inhibition CLK2
recorded.metric: inhibition at 1 µM (%)

In one line, give reported inhibition at 1 µM of the entry "C[C@@H]1CN(c2cc(-c3n[nH]c4ccc(OC5(C)CC5)cc34)ccn2)CCO1" .
53

In one line, give reported inhibition at 1 µM of the entry "C[C@@H]1CN(c2cc(-c3n[nH]c4ccc(OC5(C)CC5)cc34)ccn2)C[C@H](C)O1" .
49

In one line, give reported inhibition at 1 µM of the entry "CC1(Oc2ccc3[nH]nc(-c4ccnc(N5CCOCC5)c4)c3c2)CC1" .
46

In one line, give reported inhibition at 1 µM of the entry "C[C@H]1CN(c2cc(-c3n[nH]c4ccc(OC5(C)CC5)cc34)ccn2)CCO1" .
42

----------
Target: BRAF V599E (Homo sapiens, UniProt P15056, V600E)
Construct: purchased Life Technologies Corporation
Sequence (P15056 whole entry V600E): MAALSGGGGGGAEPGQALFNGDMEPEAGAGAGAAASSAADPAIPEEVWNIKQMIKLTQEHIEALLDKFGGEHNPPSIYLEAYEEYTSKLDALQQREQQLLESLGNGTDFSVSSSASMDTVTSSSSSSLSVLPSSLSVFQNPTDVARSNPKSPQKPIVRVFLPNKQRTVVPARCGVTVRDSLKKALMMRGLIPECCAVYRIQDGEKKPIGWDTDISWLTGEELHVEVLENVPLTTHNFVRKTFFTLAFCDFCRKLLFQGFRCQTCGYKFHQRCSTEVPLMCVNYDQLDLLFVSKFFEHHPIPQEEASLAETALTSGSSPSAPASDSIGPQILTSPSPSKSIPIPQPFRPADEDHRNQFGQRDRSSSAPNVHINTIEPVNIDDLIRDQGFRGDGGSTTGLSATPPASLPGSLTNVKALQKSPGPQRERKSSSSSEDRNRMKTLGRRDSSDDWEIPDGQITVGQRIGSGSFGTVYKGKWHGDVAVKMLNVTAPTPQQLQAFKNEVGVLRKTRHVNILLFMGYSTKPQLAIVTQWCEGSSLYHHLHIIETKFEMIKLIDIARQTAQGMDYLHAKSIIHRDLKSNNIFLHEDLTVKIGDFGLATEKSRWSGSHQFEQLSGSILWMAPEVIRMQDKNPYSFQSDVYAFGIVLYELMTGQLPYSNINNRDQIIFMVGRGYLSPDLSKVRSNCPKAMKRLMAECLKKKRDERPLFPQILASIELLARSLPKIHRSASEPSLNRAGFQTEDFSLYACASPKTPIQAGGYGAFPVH
Experiment: Kinase selectivity, Z'-LYTE platform
Format: biochemical
Details: 1 micromolar compound, read-out: percent inhibition BRAF V599E
recorded.metric: inhibition at 1 µM (%)

In one line, give reported inhibition at 1 µM of the entry C[C@@H]1CN(c2cc(-c3n[nH]c4ccc(OC5(C)CC5)cc34)ccn2)CCO1 [Example 29] .
18

(P) C[C@H]1CN(c2cc(-c3n[nH]c4ccc(OC5(C)CC5)cc34)ccn2)CCO1 [Example 28]
(Q) CC1(Oc2ccc3[nH]nc(-c4ccnc(N5CCOCC5)c4)c3c2)CC1 [Example 27]
(R) C[C@@H]1CN(c2cc(-c3n[nH]c4ccc(OC5(C)CC5)cc34)ccn2)C[C@H](C)O1 [Example 30]
Place the items in sequence of falling inhibition at 1 µM. Order the labels as requested and give them as your answer.
Q, P, R

----------
Molecular target: LRRK2 (G2019S mutation, GST-LRRK2 (amino acids 970-2527)) (Homo sapiens, UniProt Q5S007, G2019S)
Construct: GST-LRRK2 (amino acids 970-2527); GST (N); purchased Life Technologies Corporation
Experiment: LRRK2 Km ATP LanthaScreen Assay
Type: biochemical
Conditions: mean IC50
recorded.metric: IC50 (nM)

See these solved cases before continuing.
In one line, give reported IC50 of the entry "CN1CCN(c2cc(-c3n[nH]c4ccc(OC5(C)CC5)cc34)ccn2)CC1" .
0.6

In one line, give reported IC50 of the entry "O[C@H]1CCN(c2cc(-c3n[nH]c4ccc(OC5CC5)cc34)ccn2)C1" .
29

(I) CC1(Oc2ccc3[nH]nc(-c4ccnc(N5CC6CCC(C5)O6)c4)c3c2)CC1
(II) CC1(Oc2ccc3[nH]nc(-c4ccnc(N5CC[C@H](N)C5)c4)c3c2)CC1
(III) Fc1cc2[nH]nc(-c3ccnc(N4CCOCC4)c3)c2cc1OC1CC1
(IV) C[C@H]1CN(c2cc(-c3n[nH]c4ccc(OC5(C)CC5)cc34)ccn2)CCO1
Place the items in sequence of falling IC50. Order the labels as requested and give them as your answer.
I, II, III, IV
(I: 23 nM, II: 2.6 nM, III: 1.2 nM, IV: 0.6 nM)

(I) FC1(F)CCCN(c2cc(-c3n[nH]c4ccc(OC5CC5)cc34)ccn2)C1
(II) C[C@H]1[C@H](N)[C@@H](O)CN1c1cc(-c2n[nH]c3ccc(OC4(C)CC4)cc23)ccn1
Given the listed items, does I or II have the lesser reported IC50? Output the label that corresponds to your choice.
II
(II: 1.1 nM, I: 22 nM)
